# credit: ChEMBL document CHEMBL1641380

- target_system: 5-hydroxytryptamine receptor 7 (Homo sapiens, UniProt P34969)
- Sequence (P34969 whole entry): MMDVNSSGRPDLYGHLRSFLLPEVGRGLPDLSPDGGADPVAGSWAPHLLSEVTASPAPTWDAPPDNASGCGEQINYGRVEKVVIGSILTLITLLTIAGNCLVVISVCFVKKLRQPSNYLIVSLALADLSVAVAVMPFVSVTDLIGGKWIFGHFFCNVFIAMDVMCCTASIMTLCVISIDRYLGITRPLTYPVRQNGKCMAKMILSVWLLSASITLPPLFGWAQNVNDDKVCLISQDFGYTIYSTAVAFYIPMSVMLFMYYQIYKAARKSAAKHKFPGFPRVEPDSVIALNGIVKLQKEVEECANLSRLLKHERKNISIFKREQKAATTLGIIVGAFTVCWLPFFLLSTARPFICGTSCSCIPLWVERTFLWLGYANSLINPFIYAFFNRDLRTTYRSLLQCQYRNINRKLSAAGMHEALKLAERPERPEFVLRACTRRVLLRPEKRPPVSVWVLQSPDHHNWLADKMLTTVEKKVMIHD
measure_name: Ki

IN: What does the data say about its Ki? Entry: `Clc1ccc(-c2nn(Cc3ccccc3)c3c2CNCC3)cc1`
OUT: 14 nM

* * *

- measurement_notes: Drug level in rat brain at 10 mg/kg, ip after 1 hr
- Assay type: ADME, organism-based
- Design: dose 10 mg/kg, route intraperitoneal
- condition: read-out: Drug uptake
measure_name: concentration at 1 h (µM)
Answers are plain numbers, in µM.

IN: May I ask what concentration at 1 h has been recorded for `Cc1ccc(-c2cn(Cc3ccccc3)c3c2CNCC3)cc1` ?
OUT: 27

* * *

- target_system: 5-hydroxytryptamine receptor 7 (Rattus norvegicus)
- Sequence (P32305 whole entry): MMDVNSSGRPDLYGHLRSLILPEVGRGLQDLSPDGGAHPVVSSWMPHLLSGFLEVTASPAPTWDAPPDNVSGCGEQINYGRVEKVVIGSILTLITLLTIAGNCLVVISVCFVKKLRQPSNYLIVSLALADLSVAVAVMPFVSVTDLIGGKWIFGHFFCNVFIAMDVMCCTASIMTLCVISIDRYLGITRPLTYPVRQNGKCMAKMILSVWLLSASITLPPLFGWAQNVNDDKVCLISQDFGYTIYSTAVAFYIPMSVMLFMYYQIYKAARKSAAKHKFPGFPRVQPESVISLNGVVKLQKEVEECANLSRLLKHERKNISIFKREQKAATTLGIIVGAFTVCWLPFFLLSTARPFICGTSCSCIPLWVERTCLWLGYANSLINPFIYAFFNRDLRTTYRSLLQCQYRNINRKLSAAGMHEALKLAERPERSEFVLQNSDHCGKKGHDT
- measurement_notes: Displacement of [3H]5-CT from rat recombinant 5HT7 receptor expressed in HEK293 cells after 60 mins
Could you please mark MET for values of Ki below 200 nM and NOT MET for values at or above it?

IN: Does the reported Ki of `Clc1ccc(-c2cn(Cc3ccccc3)c3c2CNCC3)cc1Cl` stay below 200 nM?
OUT: NOT MET

Others:
IN: Does `CC(C)(C)c1ccc(-c2cn(Cc3ccccc3)c3c2CNCC3)cc1` have Ki strictly under 200 nM?
OUT: NOT MET

IN: Next: `Cc1ccc(-c2cn(Cc3ccccc3)c3c2CNCC3)cc1`
OUT: MET

IN: What about `FC(F)(F)c1ccc(-c2cn(Cc3ccccc3)c3c2CNCC3)cc1` ?
OUT: MET
